Origin of measurements: BigSolDB 2.1

conditions: in acetone, 298.15 K
READOUT NAME: solubility (mole fraction)
Just the number, please.

Provide solubility (mole fraction) value for the following molecule: Nc1cc(Cl)ccc1C(=O)O 0.0307

###

settings: in acetonitrile, 298.15 K
READOUT NAME: solubility (mole fraction)
Please give only the number in your answer, with no unit.

Using known records, supply solubility (mole fraction) for Nc1cc(Cl)ccc1C(=O)O 0.00303

###

conditions: in isopropanol, 310.65 K
READOUT NAME: solubility (mole fraction)
Lab note: jot the number down without any unit.

Please report the measured solubility (mole fraction) for Nc1cc(Cl)ccc1C(=O)O 0.0262

###

settings: in isopropanol, 300.65 K
READOUT NAME: solubility (mole fraction)
Keep it simple and answer with nothing but the number.

Name the recorded solubility (mole fraction) of the compound listed here: Nc1cc(Cl)ccc1C(=O)O 0.0195

###

conditions: in ethylbenzene, 293.15 K
READOUT NAME: solubility (mole fraction)
Please give only the number in your answer, with no unit.

# return recorded solubility (mole fraction) for entry Nc1cc(Cl)ccc1C(=O)O 0.000255

###

details: in n-propanol, 285.65 K
READOUT NAME: solubility (mole fraction)
# output: bare number, no unit

Kindly indicate its recorded solubility (mole fraction). Item: Nc1cc(Cl)ccc1C(=O)O 0.0113

###

settings: in acetonitrile, 295.65 K
READOUT NAME: solubility (mole fraction)
No unit in the answer, only the number.

Give solubility (mole fraction) for the following compound: Nc1cc(Cl)ccc1C(=O)O 0.00277

###

settings: in ethylbenzene, 285.65 K
READOUT NAME: solubility (mole fraction)
Respond with the number and no other words.

Hello, please tell me recorded solubility (mole fraction) for this one: Nc1cc(Cl)ccc1C(=O)O 0.000172

###

conditions: in ethylbenzene, 303.15 K
READOUT NAME: solubility (mole fraction)
// print number alone

Give the measured solubility (mole fraction) for Nc1cc(Cl)ccc1C(=O)O 0.000418

###

conditions: in isopropanol, 295.65 K
READOUT NAME: solubility (mole fraction)

For the compound Nc1cc(Cl)ccc1C(=O)O , give its measured solubility (mole fraction) value. 0.0167

###

settings: in ethanol, 303.15 K
READOUT NAME: solubility (mole fraction)

Given the compound Nc1cc(Cl)ccc1C(=O)O , write its reported solubility (mole fraction). 0.0221

###

details: in toluene, 305.65 K
READOUT NAME: solubility (mole fraction)
Write the value as a bare number.

Fill in solubility (mole fraction) for record Nc1cc(Cl)ccc1C(=O)O 0.000533

###

conditions: in acetone, 278.15 K
READOUT NAME: solubility (mole fraction)
Respond with the number and no other words.

For the compound Nc1cc(Cl)ccc1C(=O)O , give its reported solubility (mole fraction). 0.0159

###

settings: in toluene, 295.65 K
READOUT NAME: solubility (mole fraction)
Returns: the value as a bare number; no unit string appended.

Name the recorded solubility (mole fraction) of the item Nc1cc(Cl)ccc1C(=O)O in your answer. 0.000339

###

details: in n-propanol, 308.15 K
READOUT NAME: solubility (mole fraction)
Give only the figure.

Answer with the recorded solubility (mole fraction) of Nc1cc(Cl)ccc1C(=O)O only. 0.023

###

conditions: in acetonitrile, 300.65 K
READOUT NAME: solubility (mole fraction)
Output spec: single numeric token, no unit.

Find the measured solubility (mole fraction) of Nc1cc(Cl)ccc1C(=O)O and report it. 0.00332

###

details: in acetone, 310.65 K
READOUT NAME: solubility (mole fraction)

Return solubility (mole fraction) (reported value) for this compound: Nc1cc(Cl)ccc1C(=O)O 0.0433

###

details: in n-butanol, 313.15 K
READOUT NAME: solubility (mole fraction)
Give the value as a plain number.

Assign solubility (mole fraction) to the following record: Nc1cc(Cl)ccc1C(=O)O 0.025

###

settings: in ethyl acetate, 310.65 K
READOUT NAME: solubility (mole fraction)

Specify solubility (mole fraction) for Nc1cc(Cl)ccc1C(=O)O and stop. 0.0343

###

conditions: in 1,4-dioxane, 300.65 K
READOUT NAME: solubility (mole fraction)

Give recorded solubility (mole fraction). Nc1cc(Cl)ccc1C(=O)O 0.0295

###

details: in ethyl acetate, 280.65 K
READOUT NAME: solubility (mole fraction)
Enter the number alone.

Specify solubility (mole fraction) for Nc1cc(Cl)ccc1C(=O)O and stop. 0.0136

###

conditions: in acetonitrile, 310.65 K
READOUT NAME: solubility (mole fraction)
Give the value as a plain number.

State its solubility (mole fraction): Nc1cc(Cl)ccc1C(=O)O 0.00468

###

conditions: in n-propanol, 295.65 K
READOUT NAME: solubility (mole fraction)

Return value of solubility (mole fraction) for input Nc1cc(Cl)ccc1C(=O)O , no commentary. 0.0157

###

settings: in n-butanol, 293.15 K
READOUT NAME: solubility (mole fraction)

Return value of solubility (mole fraction) for input Nc1cc(Cl)ccc1C(=O)O , no commentary. 0.0132

###

conditions: in NMP, 280.65 K
READOUT NAME: solubility (mole fraction)
The answer should be written as a number, with no unit following it.

For the molecule Nc1cc(Cl)ccc1C(=O)O , give its measured solubility (mole fraction) value. 0.0338

###

settings: in acetone, 283.15 K
READOUT NAME: solubility (mole fraction)
Lab note: jot the number down without any unit.

State, in one line, measured solubility (mole fraction) of Nc1cc(Cl)ccc1C(=O)O 0.0189

###

details: in ethylbenzene, 313.15 K
READOUT NAME: solubility (mole fraction)
Give the value as a plain number.

Look up solubility (mole fraction) of Nc1cc(Cl)ccc1C(=O)O and report it. 0.000664

###

details: in ethyl acetate, 298.15 K
READOUT NAME: solubility (mole fraction)
# respond with the number and nothing more

Fill in reported solubility (mole fraction) for this entry: Nc1cc(Cl)ccc1C(=O)O 0.0241

###

conditions: in n-butanol, 280.65 K
READOUT NAME: solubility (mole fraction)
// return just the number, without any unit appended

Provide one value: measured solubility (mole fraction) of Nc1cc(Cl)ccc1C(=O)O 0.0084

###

conditions: in toluene, 313.15 K
READOUT NAME: solubility (mole fraction)
Output spec: single numeric token, no unit.

Please report the measured solubility (mole fraction) for Nc1cc(Cl)ccc1C(=O)O 0.000742

###

settings: in n-butanol, 283.15 K
READOUT NAME: solubility (mole fraction)
Lab note: write the figure by itself, no unit.

Query solubility (mole fraction) for Nc1cc(Cl)ccc1C(=O)O 0.00925

###

conditions: in ethanol, 295.65 K
READOUT NAME: solubility (mole fraction)

Indicate its recorded solubility (mole fraction); the compound in question is Nc1cc(Cl)ccc1C(=O)O 0.0177

###

conditions: in isopropanol, 285.65 K
READOUT NAME: solubility (mole fraction)
Response field accepts a number only; no unit should be typed.

Identify measured solubility (mole fraction) corresponding to Nc1cc(Cl)ccc1C(=O)O 0.012

###

conditions: in 1,4-dioxane, 283.15 K
READOUT NAME: solubility (mole fraction)
Reply briefly: the number, and no unit.

Return solubility (mole fraction) (reported value) for this compound: Nc1cc(Cl)ccc1C(=O)O 0.0158

###

details: in isopropanol, 308.15 K
READOUT NAME: solubility (mole fraction)
API doc: respond with a numeric literal and nothing else, no unit.

Please supply the value of reported solubility (mole fraction) for the item Nc1cc(Cl)ccc1C(=O)O 0.0244

###

details: in 1,4-dioxane, 295.65 K
READOUT NAME: solubility (mole fraction)

Determine its reported solubility (mole fraction): Nc1cc(Cl)ccc1C(=O)O 0.0248

###

settings: in isopropanol, 288.15 K
READOUT NAME: solubility (mole fraction)
Give the figure by itself; no unit, no explanation.

Report solubility (mole fraction), nothing else, for this compound: Nc1cc(Cl)ccc1C(=O)O 0.0131

###

conditions: in acetonitrile, 303.15 K
READOUT NAME: solubility (mole fraction)

Given Nc1cc(Cl)ccc1C(=O)O , respond with its solubility (mole fraction). 0.00362

###

conditions: in n-butanol, 285.65 K
READOUT NAME: solubility (mole fraction)

Report solubility (mole fraction), nothing else, for this compound: Nc1cc(Cl)ccc1C(=O)O 0.0102

###

conditions: in ethyl acetate, 303.15 K
READOUT NAME: solubility (mole fraction)
Note: the reply should be a number with no unit written.

Consider the molecule Nc1cc(Cl)ccc1C(=O)O and give its recorded solubility (mole fraction). 0.0278

###

details: in NMP, 290.65 K
READOUT NAME: solubility (mole fraction)
Just the number, please, no unit after it.

Please report the measured solubility (mole fraction) for Nc1cc(Cl)ccc1C(=O)O 0.0406

###

settings: in n-propanol, 280.65 K
READOUT NAME: solubility (mole fraction)
Answer with a number only.

State, in one line, measured solubility (mole fraction) of Nc1cc(Cl)ccc1C(=O)O 0.0095
